- assay method text: Plasma oxaprozin concentrations before and 24 h after co-administration (steady-state check)
- Assay type: in vivo
- assay setup: male, human, oral, 24 h after co-administration with dotinurad, n = 11
parameter measured: concentration at 24 h (µg/mL)
Only the number, expressed in µg/mL, is required.

In plain terms, O=C(O)CCc1nc(-c2ccccc2)c(-c2ccccc2)o1 [Oxaprozin, oxaprozin, reference compound] has a documented concentration at 24 h of 102

* * *

- assay method text: Plasma pharmacokinetics of dotinurad, single 4 mg oral dose with and without oxaprozin, in healthy adult males
- Type: in vivo, human
- assay setup: male, human, plasma; dotinurad alone, single 4 mg oral dose, fed, n = 12
- Protocol: This was a single-center, open-label, two-period, sequential-group, add-on, drug-drug interaction study in healthy adult males conducted at a Japanese clinical pharmacology study center. Following a screening period ranging from 29 days before, to the day before the study drug administration (Day -1), eligible subjects were admitted to the study site on Day-1, received a single 4 mg oral dose of dotinurad in a fed state, and were discharged 48 h postdose. […]
parameter measured: Vd/F
Reply with the number and its unit after it.

In plain terms, O=C(c1cc(Cl)c(O)c(Cl)c1)N1CS(=O)(=O)c2ccccc21 has a documented Vd/F of 14.9 L

Values compiled from paper PMC7066271.
